- protocol: Assessment of brain penetrability in mice (plasma and brain PK)
- Type: in vivo
- test_parameters: male, BALB/cAJcl-nu/nu, mouse, brain, oral, 20 mg/kg; unbound brain AUC / unbound plasma AUC
property_label: Kp uu
Answer as a number with no unit attached.

In plain terms, C#Cc1c(-c2cnc3ccccc3c2)c2c(N)ncnc2n1C12CCC(NC(=O)c3cnc(C)cn3)(CC1)C2 [TAS3351] has a documented Kp uu of 0.68

###

- system_tested: human recombinant EGFR L858R (Homo sapiens, UniProt P00533, L858R)
- Sequence (P00533 25-1210 L858R): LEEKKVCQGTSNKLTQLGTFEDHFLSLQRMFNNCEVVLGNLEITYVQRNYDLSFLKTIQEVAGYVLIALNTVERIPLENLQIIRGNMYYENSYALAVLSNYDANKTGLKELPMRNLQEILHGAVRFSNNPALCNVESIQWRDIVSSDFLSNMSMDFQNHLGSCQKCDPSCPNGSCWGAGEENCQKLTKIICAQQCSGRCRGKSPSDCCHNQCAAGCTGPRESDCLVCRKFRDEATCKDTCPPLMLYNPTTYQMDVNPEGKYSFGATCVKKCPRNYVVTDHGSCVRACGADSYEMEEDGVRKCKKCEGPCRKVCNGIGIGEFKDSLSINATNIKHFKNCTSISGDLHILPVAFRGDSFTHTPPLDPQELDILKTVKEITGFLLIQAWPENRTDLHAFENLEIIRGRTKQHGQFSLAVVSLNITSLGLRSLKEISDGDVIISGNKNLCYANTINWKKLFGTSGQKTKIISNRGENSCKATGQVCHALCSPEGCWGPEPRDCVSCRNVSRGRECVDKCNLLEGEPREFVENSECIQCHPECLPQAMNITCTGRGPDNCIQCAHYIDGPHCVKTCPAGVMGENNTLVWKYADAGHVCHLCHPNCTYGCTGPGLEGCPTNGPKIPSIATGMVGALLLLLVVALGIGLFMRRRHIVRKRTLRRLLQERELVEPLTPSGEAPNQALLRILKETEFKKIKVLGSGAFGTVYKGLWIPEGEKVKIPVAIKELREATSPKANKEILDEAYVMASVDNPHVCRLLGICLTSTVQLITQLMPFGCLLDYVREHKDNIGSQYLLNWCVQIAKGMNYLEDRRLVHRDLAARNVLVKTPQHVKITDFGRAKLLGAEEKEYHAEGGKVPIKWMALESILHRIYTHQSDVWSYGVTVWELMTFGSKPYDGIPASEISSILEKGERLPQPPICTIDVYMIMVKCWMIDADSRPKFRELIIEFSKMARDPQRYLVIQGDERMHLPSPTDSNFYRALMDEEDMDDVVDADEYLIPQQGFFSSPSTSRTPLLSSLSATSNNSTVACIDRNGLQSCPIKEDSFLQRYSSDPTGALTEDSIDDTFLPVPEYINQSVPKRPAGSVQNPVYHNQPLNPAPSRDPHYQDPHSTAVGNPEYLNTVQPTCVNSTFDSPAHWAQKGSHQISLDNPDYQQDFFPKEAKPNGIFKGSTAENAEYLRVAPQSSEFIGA
- protocol: EGFR biochemical kinetics assay (PhosphoSens Kinase Assay), Ki
property_label: Ki (nM)
Provide only the numeric value, understood in nM.

Short answer for C#Cc1c(-c2cnc3ccccc3c2)c2c(N)ncnc2n1C12CCC(NC(=O)c3cnc(C)cn3)(CC1)C2 : Ki was 0.259
